system: OVCAR-3; assay: MTT cytotoxicity assay on OVCAR-3 cells; format: cell-based; conditions: administered without formulations, three days incubation
Property label: pIC50
Reminder that pIC50 is minus the log10 of a molar concentration.

Per the records, this molecule ( Cc1ccc2c(c1)CNCCN1Cc3cc(C)ccc3[O][V](=[O])([O]2)[O]c2ccc(C)cc2C1 ) has pIC50 equal to 6.52

Per the records, this molecule ( Cc1cc(C)c2c(c1)CN1Cc3cc(C)cc(C)c3[O][V](=[O])([O]2)[O]c2c(C)cc(C)cc2C1 ) has pIC50 equal to 5.55

Per the records, this molecule ( COc1ccc2c(c1)CNCCN1Cc3cc(OC)ccc3[O][V](=[O])([O]2)[O]c2ccc(OC)cc2C1 ) has pIC50 equal to 6.22

Per the records, this molecule ( CC(C)(C)Oc1ccc2c(c1)CNCCN1Cc3cc(OC(C)(C)C)ccc3[O][V](=[O])([O]2)[O]c2ccc(OC(C)(C)C)cc2C1 ) has pIC50 equal to 5.89

Per the records, this molecule ( N.N.[Cl][Pt][Cl] [Cis-platin, reference compound] ) has pIC50 equal to 5.06

Per the records, this molecule ( [O]=[V]12[O]c3ccccc3CNCCN(Cc3ccccc3[O]1)Cc1ccccc1[O]2 ) has pIC50 equal to 6.52

Per the records, this molecule ( [O]=[V]1[O]c2ccccc2CNCCNCc2ccccc2[O]1 ) has pIC50 equal to 5.37
